Values were extracted from PubChem BioAssay AID588548.

Recorded AC50 values for a group of molecules are listed next.
Target: Scavenger receptor class B member 1 (Mus musculus) (UniProt Q61009)
Sequence (Q61009 whole entry, looked up): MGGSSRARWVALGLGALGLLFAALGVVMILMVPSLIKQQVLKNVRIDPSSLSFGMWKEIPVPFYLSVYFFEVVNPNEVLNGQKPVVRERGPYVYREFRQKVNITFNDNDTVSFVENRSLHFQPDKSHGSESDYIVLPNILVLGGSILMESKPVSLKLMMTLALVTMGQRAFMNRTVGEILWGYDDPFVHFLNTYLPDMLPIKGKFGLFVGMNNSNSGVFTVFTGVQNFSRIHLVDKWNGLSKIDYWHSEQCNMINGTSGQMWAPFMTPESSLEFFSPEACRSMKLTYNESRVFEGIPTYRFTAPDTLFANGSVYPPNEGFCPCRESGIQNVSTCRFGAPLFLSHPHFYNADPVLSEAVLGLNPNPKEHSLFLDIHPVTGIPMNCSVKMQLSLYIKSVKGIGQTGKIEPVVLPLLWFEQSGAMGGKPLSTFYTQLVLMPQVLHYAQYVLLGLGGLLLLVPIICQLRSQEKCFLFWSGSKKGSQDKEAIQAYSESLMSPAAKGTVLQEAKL
Assay: SR-BI-mediated DiI-HDL uptake inhibitors, dose response, ldlA[mSR-BI] CHO cells, powder samples, set 4 (AID 588548)
Settings: DiI-HDL uptake fluorescence, 3 h

input: # input molecule: COc1ccc(-c2cc(CC(=O)N(C3CCCCC3)C(C)C(=O)NC3CCCC3)no2)cc1OC (stereo not given) ; wanted: its AC50
output: 28.5 nM

input: Again, but for CCC(=O)Nc1ccc(-c2csc(N)n2)cc1
output: 8840 nM

input: Again, but for CCCN1CCc2cc(-c3csc(NC(=O)c4cc(OC)cc(OC)c4)n3)ccc21
output: 51.7 nM

New cases:
input: # input molecule: COc1cc(OC)cc(C(=O)Nc2nc(-c3ccc4c(c3)CCN4C(=O)OC(C)(C)C)cs2)c1 ; wanted: its AC50
output: < 15 nM

input: Again, but for CCC(=O)Nc1ccc(-c2csc(NC(=O)c3cccc(OC)c3)n2)cc1
output: 99.3 nM

input: Again, but for CCC(=O)Nc1ccc(-c2csc(NC(=O)c3ccco3)n2)cc1
output: 1920 nM

input: Again, but for CCC(=O)N1CCc2cc(-c3csc(NC(=O)c4cc(OC)c(OC)c(OC)c4)n3)ccc21
output: < 15 nM

input: Again, but for COc1ccc(-c2nc(CC(=O)N(C3CCCCC3)C(C)C(=O)NC3CCCC3)cs2)cc1OC (stereo not given)
output: 5260 nM

input: Again, but for CC(C(=O)NC1CCCC1)N(C(=O)Cn1nnc(-c2ccc3c(c2)OC(F)(F)O3)n1)C1CCCCC1 (stereo not given)
output: 63.5 nM

input: Again, but for CCC(=O)N1CCc2cc(-c3csc(NC(=O)c4cc5cccnc5o4)n3)ccc21
output: 45.3 nM
